# MEASURED_TARGET: ENL YEATS domain (association with H3K27cr) (Homo sapiens, UniProt Q03111)
# Sequence (Q03111 1-148): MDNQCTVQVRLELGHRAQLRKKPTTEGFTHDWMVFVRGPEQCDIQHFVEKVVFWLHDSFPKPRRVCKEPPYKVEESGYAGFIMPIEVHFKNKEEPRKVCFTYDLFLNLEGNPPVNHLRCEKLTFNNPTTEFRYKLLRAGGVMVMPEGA
# TEST_METHOD_NOTES: biochemical
# CONDITION_NOTES: ENL (YEATS)-H3K27cr HTRF (IC50, μM), Table 2
Output condition met for records whose IC50 is lower than 0.3 µM, condition not met for records at or above 0.3 µM.

INSERT INTO measurements (compound, qualitative_label) VALUES
  ('O=C(NC1CCC1)c1ccc2nc(-c3cccc(NS(=O)(=O)NCCN4CCC(O)CC4)c3)cn2c1', 'condition met');

Just wondering, is IC50 of CC1(C)CCN(CCNS(=O)(=O)Nc2cccc(-c3cn4cc(C(=O)NC5CCC5)ccc4n3)c2)CC1 below 0.3 µM? condition met

Input COc1ccc(CNS(=O)(=O)Nc2cccc(-c3cn4cc(C(=O)NC(C)C)ccc4n3)c2)c(OC)c1 condition not met

O=C(CCN1CCCCC1)Nc1cccc(-c2cn3cc(C(=O)NC4CCC4)ccc3n2)c1 , same question. condition not met

Another compound: CC(C)NC(=O)c1ccc2nc(-c3ccccc3OC(F)(F)F)cn2c1 condition not met

Next record, please: CC(C)NC(=O)c1ccc2nc(-c3cccc(C(F)(F)F)c3)cn2c1 condition not met

And what about the compound O=C(NC1CCC1)c1ccc2nc(-c3cccc(NS(=O)(=O)CCN4CCCCC4)c3)cn2c1 ? condition met

Then O=C(NC1CC(O)C1)c1ccc2nc(-c3ccccc3)cn2c1 (stereo not drawn) ? condition not met

Let us now turn to O=C(CCN1CCNCC1)Nc1cccc(-c2cn3cc(C(=O)NC4CCC4)ccc3n2)c1 condition met

Same read-out for O=C(NCC1CC1)c1ccc2nc(-c3ccccc3)cn2c1 ? condition not met

Next record, please: CC(C)NC(=O)c1ccc2nc(-c3ccccc3C(F)(F)F)cn2c1 condition not met

Same question, CC(C)NC(=O)c1ccc2nc(-c3cccc(OC(F)(F)F)c3)cn2c1 this time condition not met

Please give the result for O=C(NC1CCCCC1O)c1ccc2nc(-c3ccccc3)cn2c1 (stereo not drawn) too. condition not met

Can you handle CC(C)NC(=O)c1ccc2nc(-c3ccc(N)cc3)cn2c1 next? condition not met

Same for O=C(NCc1cccnc1)c1ccc2nc(-c3ccccc3)cn2c1 condition not met

Same question for Cc1ccc(-c2cn3cc(C(=O)NC(C)C)ccc3n2)cc1 please. condition not met

Moving on to CC(C)NC(=O)c1ccc2nc(-c3cccc(NS(=O)(=O)NCCc4ccc(N)cc4)c3)cn2c1 condition not met
